Data provenance: paper PMC9952496

- Test system: E. faecalis (NCTC 12697)
- Type: cell-based
- stated-conditions: NCTC 12697, 20 h
Residues, ends and D or L forms follow the SMILES beside them.
property: MBC (µM)

INSERT INTO measurements (molecule, data_value) VALUES
  ('CC[C@H](C)[C@H](NC(=O)[C@H](CCCCN)NC(=O)[C@H](CCCCN)NC(=O)[C@@H](NC(=O)[C@@H](NC(=O)[C@H](CCCCN)NC(=O)[C@H](CCCCN)NC(=O)[C@@H](NC(=O)[C@@H](NC(=O)[C@H](CCCCN)NC(=O)[C@H](CCCCN)NC(=O)[C@@H](NC(=O)[C@@H](NC(=O)[C@H](CC(=O)O)NC(=O)[C@H](Cc1ccccc1)NC(=O)[C@H](CC(C)C)NC(=O)CN)[C@@H](C)CC)[C@@H](C)CC)[C@@H](C)CC)[C@@H](C)CC)[C@@H](C)CC)[C@@H](C)CC)C(N)=O [IK-3] (H-GLFDIIKKIIKKIIKKI-NH2)', 32),
  ('CC[C@H](C)[C@H](NC(=O)[C@H](CC(=O)O)NC(=O)[C@H](Cc1ccccc1)NC(=O)[C@H](CC(C)C)NC(=O)CN)C(=O)N[C@H](C(=O)N[C@@H](CCCCN)C(=O)N[C@@H](CCCCN)C(=O)N[C@@H](CC(C)C)C(=O)N[C@@H](C)C(=O)N[C@@H](CCC(=O)O)C(=O)N[C@@H](CO)C(=O)N[C@@H](Cc1ccccc1)C(N)=O)[C@@H](C)CC [KLA-1] (H-GLFDIIKKLAESF-NH2)', 32);

---

- Test system: E. faecalis (NCTC 12697)
- Type: cell-based
- stated-conditions: NCTC 12697
- Description: The antimicrobial activity evaluation was conducted by use of MIC and MBC assays, using three Gram-positive bacteria and three Gram-negative bacteria. The peptides were dissolved in dimethyl sulfoxide (DMSO) for a final concentration series from 1 to 128 µM; 20 µmol of norfloxacin was applied as the positive control, and one µL of DMSO was used as the negative control. […] Afterward, the OD value (λ = 550 nm) of each well was detected using a Synergy HT plate reader (Biotech, Minneapolis, MN, USA). […]
Residues, ends and D or L forms follow the SMILES beside them.
property: MIC (µM)

INSERT INTO results (compound, data_value) VALUES
  ('CC[C@H](C)[C@H](NC(=O)[C@H](CCCCN)NC(=O)[C@H](CCCCN)NC(=O)[C@@H](NC(=O)[C@@H](NC(=O)[C@H](CCCCN)NC(=O)[C@H](CCCCN)NC(=O)[C@@H](NC(=O)[C@@H](NC(=O)[C@H](CCCCN)NC(=O)[C@H](CCCCN)NC(=O)[C@@H](NC(=O)[C@@H](NC(=O)[C@H](CC(=O)O)NC(=O)[C@H](Cc1ccccc1)NC(=O)[C@H](CC(C)C)NC(=O)CN)[C@@H](C)CC)[C@@H](C)CC)[C@@H](C)CC)[C@@H](C)CC)[C@@H](C)CC)[C@@H](C)CC)C(N)=O [IK-3] (H-GLFDIIKKIIKKIIKKI-NH2)', 16);

---

- Test system: U251MG glioblastoma astrocytoma cell line
- Assay type: cell-based, human
- Protocol: The MTT test measures the anti-proliferation of the peptide by measuring MTT conversion by live cells into a formazan that cannot be dissolved in water. In this section, three cancer cell lines: human non-small-cell lung cancer cell line, NCI-H838 (ATCC-CRL-5844); human glioblastoma astrocytoma cell line, U251MG (ECACC-09063001) and human breast cancer cell line, MCF-7 (ATCC-HTB-22), were selected for the anti-proliferation study. […] The plate was read at 570 nm using a Synergy HT plate reader.
Residues, ends and D or L forms follow the SMILES beside them.
The following molecules are listed with their measured IC50 values.
property: IC50 (µM)

INSERT INTO measurements (molecule, property, quantity_unit, data_value) VALUES
  ('CC[C@H](C)[C@H](NC(=O)[C@H](CC(=O)O)NC(=O)[C@H](Cc1ccccc1)NC(=O)[C@H](CC(C)C)NC(=O)CN)C(=O)N[C@H](C(=O)N[C@@H](CCCCN)C(=O)N[C@@H](CCCCN)C(=O)N[C@@H](CC(C)C)C(=O)N[C@@H](C)C(=O)N[C@@H](CCCCN)C(=O)N[C@@H](CC(C)C)C(=O)N[C@@H](C)C(=O)N[C@@H](CCC(=O)O)C(=O)N[C@@H](CO)C(=O)N[C@@H](Cc1ccccc1)C(N)=O)[C@@H](C)CC [KLA-2] (H-GLFDIIKKLAKLAESF-NH2)', 'IC50', 'µM', 5),
  ('CC[C@H](C)[C@H](NC(=O)[C@H](CCCCN)NC(=O)[C@H](CCCCN)NC(=O)[C@@H](NC(=O)[C@@H](NC(=O)[C@H](CCCCN)NC(=O)[C@H](CCCCN)NC(=O)[C@@H](NC(=O)[C@@H](NC(=O)[C@H](CCCCN)NC(=O)[C@H](CCCCN)NC(=O)[C@@H](NC(=O)[C@@H](NC(=O)[C@H](CC(=O)O)NC(=O)[C@H](Cc1ccccc1)NC(=O)[C@H](CC(C)C)NC(=O)CN)[C@@H](C)CC)[C@@H](C)CC)[C@@H](C)CC)[C@@H](C)CC)[C@@H](C)CC)[C@@H](C)CC)C(N)=O [IK-3] (H-GLFDIIKKIIKKIIKKI-NH2)', 'IC50', 'µM', 3.3),
  ('CC[C@H](C)[C@H](NC(=O)[C@H](CCCCN)NC(=O)[C@H](CCCCN)NC(=O)[C@@H](NC(=O)[C@@H](NC(=O)[C@H](CC(=O)O)NC(=O)[C@H](Cc1ccccc1)NC(=O)[C@H](CC(C)C)NC(=O)CN)[C@@H](C)CC)[C@@H](C)CC)C(=O)N[C@@H](C)C(=O)N[C@@H](CCC(=O)O)C(=O)N[C@@H](CO)C(=O)N[C@@H](Cc1ccccc1)C(N)=O [aurein 1.2] (H-GLFDIIKKIAESF-NH2)', 'IC50', 'µM', 38.4),
  ('CC[C@H](C)[C@H](NC(=O)[C@H](CC(=O)O)NC(=O)[C@H](Cc1ccccc1)NC(=O)[C@H](CC(C)C)NC(=O)CN)C(=O)N[C@H](C(=O)N[C@@H](CCCCN)C(=O)N[C@@H](CCCCN)C(=O)N[C@@H](CC(C)C)C(=O)N[C@@H](C)C(=O)N[C@@H](CCC(=O)O)C(=O)N[C@@H](CO)C(=O)N[C@@H](Cc1ccccc1)C(N)=O)[C@@H](C)CC [KLA-1] (H-GLFDIIKKLAESF-NH2)', 'IC50', 'µM', 34.1),
  ('CC[C@H](C)[C@H](NC(=O)[C@H](CCCCN)NC(=O)[C@H](CCCCN)NC(=O)[C@@H](NC(=O)[C@@H](NC(=O)[C@H](CCCCN)NC(=O)[C@H](CCCCN)NC(=O)[C@@H](NC(=O)[C@@H](NC(=O)[C@H](CC(=O)O)NC(=O)[C@H](Cc1ccccc1)NC(=O)[C@H](CC(C)C)NC(=O)CN)[C@@H](C)CC)[C@@H](C)CC)[C@@H](C)CC)[C@@H](C)CC)C(=O)N[C@@H](C)C(=O)N[C@@H](CCC(=O)O)C(=O)N[C@@H](CO)C(=O)N[C@@H](Cc1ccccc1)C(N)=O [IK-1] (H-GLFDIIKKIIKKIAESF-NH2)', 'IC50', 'µM', 3.4);

---

- Tested on: E. faecalis (NCTC 12697)
- Format: cell-based
- stated-conditions: NCTC 12697
- Protocol: The antimicrobial activity evaluation was conducted by use of MIC and MBC assays, using three Gram-positive bacteria and three Gram-negative bacteria. The peptides were dissolved in dimethyl sulfoxide (DMSO) for a final concentration series from 1 to 128 µM; 20 µmol of norfloxacin was applied as the positive control, and one µL of DMSO was used as the negative control. […] Afterward, the OD value (λ = 550 nm) of each well was detected using a Synergy HT plate reader (Biotech, Minneapolis, MN, USA). […]
Residues, ends and D or L forms follow the SMILES beside them.
Reported MIC by item:
property: MIC (µM)

INSERT INTO results (compound, property, quantity_unit, data_value) VALUES
  ('CC[C@H](C)[C@H](NC(=O)[C@H](CCCCN)NC(=O)[C@H](CCCCN)NC(=O)[C@@H](NC(=O)[C@@H](NC(=O)[C@H](CC(=O)O)NC(=O)[C@H](Cc1ccccc1)NC(=O)[C@H](CC(C)C)NC(=O)CN)[C@@H](C)CC)[C@@H](C)CC)C(=O)N[C@@H](C)C(=O)N[C@@H](CCC(=O)O)C(=O)N[C@@H](CO)C(=O)N[C@@H](Cc1ccccc1)C(N)=O [aurein 1.2] (H-GLFDIIKKIAESF-NH2)', 'MIC', 'µM', 32),
  ('CC[C@H](C)[C@H](NC(=O)[C@H](CCCCN)NC(=O)[C@H](CCCCN)NC(=O)[C@@H](NC(=O)[C@@H](NC(=O)[C@H](CCCCN)NC(=O)[C@H](CCCCN)NC(=O)[C@@H](NC(=O)[C@@H](NC(=O)[C@H](CC(=O)O)NC(=O)[C@H](Cc1ccccc1)NC(=O)[C@H](CC(C)C)NC(=O)CN)[C@@H](C)CC)[C@@H](C)CC)[C@@H](C)CC)[C@@H](C)CC)C(=O)N[C@@H](C)C(=O)N[C@@H](CCC(=O)O)C(=O)N[C@@H](CO)C(=O)N[C@@H](Cc1ccccc1)C(N)=O [IK-1] (H-GLFDIIKKIIKKIAESF-NH2)', 'MIC', 'µM', 8),
  ('CC[C@H](C)[C@H](NC(=O)[C@H](CC(=O)O)NC(=O)[C@H](Cc1ccccc1)NC(=O)[C@H](CC(C)C)NC(=O)CN)C(=O)N[C@H](C(=O)N[C@@H](CCCCN)C(=O)N[C@@H](CCCCN)C(=O)N[C@@H](CC(C)C)C(=O)N[C@@H](C)C(=O)N[C@@H](CCCCN)C(=O)N[C@@H](CC(C)C)C(=O)N[C@@H](C)C(=O)N[C@@H](CCC(=O)O)C(=O)N[C@@H](CO)C(=O)N[C@@H](Cc1ccccc1)C(N)=O)[C@@H](C)CC [KLA-2] (H-GLFDIIKKLAKLAESF-NH2)', 'MIC', 'µM', 16),
  ('CC[C@H](C)[C@H](NC(=O)[C@H](CC(=O)O)NC(=O)[C@H](Cc1ccccc1)NC(=O)[C@H](CC(C)C)NC(=O)CN)C(=O)N[C@H](C(=O)N[C@@H](CCCCN)C(=O)N[C@@H](CCCCN)C(=O)N[C@@H](CC(C)C)C(=O)N[C@@H](C)C(=O)N[C@@H](CCC(=O)O)C(=O)N[C@@H](CO)C(=O)N[C@@H](Cc1ccccc1)C(N)=O)[C@@H](C)CC [KLA-1] (H-GLFDIIKKLAESF-NH2)', 'MIC', 'µM', 32);
